- assayExplanation: Plasma pharmacokinetics of pamiparib (LC-MS/MS, non-compartmental)
- Parameters: species or system human
- testSettings: human, in vivo, 160 mg, t1/2, Single Dose (Cycle 1 Day 1)
recordedEndpoint: half-life (h)

compound: C[C@]12CCCN1CC1=NNC(=O)c3cc(F)cc4[nH]c2c1c34 [pamiparib]
recordedEndpoint: half-life
observed: 15.2

* * *

- assayExplanation: Plasma pharmacokinetics of pamiparib (LC-MS/MS, non-compartmental)
- Set-up: species or system human
- testSettings: human, in vivo, 10 mg, Cmax, Single Dose (Cycle 1 Day 1)

compound: C[C@]12CCCN1CC1=NNC(=O)c3cc(F)cc4[nH]c2c1c34 [pamiparib]
Cmax / ng/mL: 412

Origin of values: paper PMC8854719
